Data origin: patent US10150751B2

IC50 by entry:
target: UniProt:O43613; experiment: FLIPR Ca2+ flux assay, hOX1R; details: CHO cells expressing the orexin-1 receptor (head: hOX1R; method: rat); agonist 70 pM Ala-6,12 orexin-A

Some compounds with recorded IC50:
compound | IC50
COc1c(C#N)ccnc1N[C@@H]1C[C@@H](C)N(C(=O)c2ccccc2-n2nccn2)C1 [Example 39] | > 10 µM
CCOc1ccnc(N[C@@H]2C[C@@H](C)N(C(=O)c3ccccc3-n3nccn3)C2)c1C(=O)OC [Example 34] | > 10 µM
C[C@@H]1C[C@@H](Nc2cc(Cl)ccn2)CN1C(=O)c1ccccc1-n1nccn1 [Example 15] | 1.16 µM
C[C@@H]1C[C@@H](Nc2cc(OCC(F)F)ccn2)CN1C(=O)c1ccsc1-n1nccn1 [Example 5] | > 10 µM
C[C@@H]1C[C@@H](Nc2cc(C(F)(F)F)ccn2)CN1C(=O)c1ccccc1-n1nccn1 [Example 14] | 1.09 µM

// query Given the compound COC(=O)c1c(OC)ccnc1N[C@@H]1C[C@@H](C)N(C(=O)c2ccccc2-n2nccn2)C1 [Example 32] , what is its reported IC50?
// result 6.75 µM

// query Given the compound C[C@@H]1C[C@@H](Nc2cc(C(F)F)ccn2)CN1C(=O)c1ccsc1-n1nccn1 [Example 27] , what is its reported IC50?
// result > 10 µM

// query Given the compound COc1cccnc1N[C@@H]1C[C@@H](C)N(C(=O)c2ccccc2-c2noc(C)n2)C1 [Example 42] , what is its reported IC50?
// result 10 µM
